Molecular target: mGluR2 receptor (metabotropic glutamate receptor 2) (Homo sapiens)
Construct: expressed in transfected cells
Sequence (Q14416 19-872, species assumed): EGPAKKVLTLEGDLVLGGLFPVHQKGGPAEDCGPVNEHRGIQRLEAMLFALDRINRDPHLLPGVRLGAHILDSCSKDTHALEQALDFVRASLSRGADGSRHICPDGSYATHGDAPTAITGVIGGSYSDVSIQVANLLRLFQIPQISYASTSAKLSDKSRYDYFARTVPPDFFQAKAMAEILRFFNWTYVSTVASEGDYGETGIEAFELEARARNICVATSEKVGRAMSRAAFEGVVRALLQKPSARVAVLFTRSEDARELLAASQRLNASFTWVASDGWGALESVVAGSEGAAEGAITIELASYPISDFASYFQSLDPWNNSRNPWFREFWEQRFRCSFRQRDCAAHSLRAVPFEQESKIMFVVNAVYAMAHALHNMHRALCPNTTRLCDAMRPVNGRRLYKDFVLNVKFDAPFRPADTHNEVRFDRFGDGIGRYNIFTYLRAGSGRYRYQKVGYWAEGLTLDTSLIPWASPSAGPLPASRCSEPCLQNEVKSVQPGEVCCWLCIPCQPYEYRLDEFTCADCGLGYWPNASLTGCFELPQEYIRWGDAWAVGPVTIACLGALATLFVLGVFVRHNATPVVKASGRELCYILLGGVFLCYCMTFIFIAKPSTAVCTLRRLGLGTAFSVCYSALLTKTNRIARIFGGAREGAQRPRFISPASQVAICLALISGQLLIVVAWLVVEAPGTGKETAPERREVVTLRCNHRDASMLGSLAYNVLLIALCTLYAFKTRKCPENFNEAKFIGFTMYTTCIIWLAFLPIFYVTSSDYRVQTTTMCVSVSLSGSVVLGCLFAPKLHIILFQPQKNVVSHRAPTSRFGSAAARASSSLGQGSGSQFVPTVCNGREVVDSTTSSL
Test: mGluR2 Potentiator Screen, FLIPR, EC10-EC20 glutamate challenge
Format: cell-based
Recorded EC50, one value per entry.
Numeric answer only, unit nM assumed.

Known EC50 results, listed for orientation:
C[C@@H]1CN(Cc2nc3ncccc3n2C)CC[C@@H]1c1ccc(C(F)(F)F)cc1F (single isomer, unassigned) [compound 139]    993
Cc1cc(F)ccc1[C@H]1CCN(Cc2nc3cnccc3n2C)C[C@H]1C (relative stereo) [compound 205]    243
CC(C)Oc1ccc([C@H]2CCN(Cc3nc4cnccc4n3C)C[C@H]2C)c(Cl)c1 (relative stereo) [compound 170]    284

Then there is this compound:
Lookup: Return EC50 for the following compound: Cn1c(CN2CCC(c3ccc(C(F)(F)F)cc3)C(F)C2)nc2ncccc21 (stereo not drawn) [compound 100]
Found: 315
